Provenance of the data: patent EP2649983A1

Molecular target: SNARE complex (VAMP, syntaxin and SNAP-25) (UniProt P60880)
Sequence (P60880 whole entry, one chain of several): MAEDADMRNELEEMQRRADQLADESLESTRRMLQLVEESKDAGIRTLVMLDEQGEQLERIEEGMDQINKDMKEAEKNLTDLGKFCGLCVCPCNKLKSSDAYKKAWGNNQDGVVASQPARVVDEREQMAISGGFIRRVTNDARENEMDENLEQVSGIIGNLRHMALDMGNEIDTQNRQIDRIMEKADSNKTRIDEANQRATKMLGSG
Assay: SDS-PAGE of SNARE complex: VAMP + syntaxin + compound, then SNAP-25; image analysis; compound at 1 mM
Non-standard residues stand in square brackets, D forms with d. *: point of attachment. Met(O2) = CS(=O)(=O)CC[C@H](N)C(=O)O; Palmitoyl = CCCCCCCCCCCCCCCC(=O)*; NHhexadecyl = CCCCCCCCCCCCCCCCN*; Myristoyl = CCCCCCCCCCCCCC(=O)*
recorded_endpoint: % inhibition formation SNARE complex (%)

For the binder Ac-NHFLNWM-NH2 [Ac-SEQ ID NO:15-NH2] , report % inhibition formation SNARE complex.
50

Please indicate % inhibition formation SNARE complex recorded for Ac-DHFLDW[Met(O2)]-NH2 [Ac-SEQ ID NO:61-NH2]
44

Please look at this binder and report its % inhibition formation SNARE complex: Palmitoyl-EHLKQWM-NH2 [Palm-SEQ ID NO:1-NH2]
26

Name the recorded % inhibition formation SNARE complex of the binder listed here: Palmitoyl-NHFLNWM-NH2 [Palm-SEQ ID NO:15-NH2]
22

Query % inhibition formation SNARE complex for Ac-QDFLHWM-NH2 [Ac-SEQ ID NO:2-NH2]
37

[P] Palmitoyl-DHFLDWM-NH2 [Palm-SEQ ID NO:25-NH2]
[Q] Myristoyl-NHFLNWM-NH2 [Myr-SEQ ID NO:15-NH2]
When P and Q are compared, which has the higher number for % inhibition formation SNARE complex? // caller expects the label of the chosen entry
P

[I] Ac-EDLKRWM-NHhexadecyl [Ac-SEQ ID NO:14-NH-(CH2)15-CH3]
[II] Ac-EDLKRWM-NH2 [Ac-SEQ ID NO:14-NH2]
Between the entries labelled I and II , which has a larger % inhibition formation SNARE complex value on record? Please reply using the label of the selected record.
II
